Property: protein stability index; scope: individual variants
B1: RSPH3 (parent)
chain: MTVKPAKAASLARNLAKRRRTYLG

# Variants of: B1
# ASSAY PROCEDURE: protein stability index of a GFP-peptide fusion (GPS, HEK-293T) (PSI 1-6); higher = more stable;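 also: lentivirally expressed fusions sorted by FACS into six bins by GFP to DsRed ratio, PSI derived from sequencing read proportions per bin multiplied by bin number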
# ASSAY CONTEXT: c terminus: a fixed tail appended
Could you respond with only the numeric value?

These recorded examples may help you get a feel for the data.
MTVKPAKAYSLARNLAKRRRTYLG :: 3.04
MTVKWAKAASLARNLAKRRRTYLG :: 2.48
MTVKPAKAASLARNLAKRRRTYLI :: 2.35

Query: What does the record list as protein stability index for MTVKPYKAASLARNLAKRRRTYLG ?
Result: 2.93

Query: Also ATVKPAKAASLARNLAKRRRTYLG ?
Result: 3.34

This collection of values is drawn from the supplement of paper PMC10567573.
